tgt: human glucagon receptor (human) (UniProt P47871)
Sequence (P47871 26-477): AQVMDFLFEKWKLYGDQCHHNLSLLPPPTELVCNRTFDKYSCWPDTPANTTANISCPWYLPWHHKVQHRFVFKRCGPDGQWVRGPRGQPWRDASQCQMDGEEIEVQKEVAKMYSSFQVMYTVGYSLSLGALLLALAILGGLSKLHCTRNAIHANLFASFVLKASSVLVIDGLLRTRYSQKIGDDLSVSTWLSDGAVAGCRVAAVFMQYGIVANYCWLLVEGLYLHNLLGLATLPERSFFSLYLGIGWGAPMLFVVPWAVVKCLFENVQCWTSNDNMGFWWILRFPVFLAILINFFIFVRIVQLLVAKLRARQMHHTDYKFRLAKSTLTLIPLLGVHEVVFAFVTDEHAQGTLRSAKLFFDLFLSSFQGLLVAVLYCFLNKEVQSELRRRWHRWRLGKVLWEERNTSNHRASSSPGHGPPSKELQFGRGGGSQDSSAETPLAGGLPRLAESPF
testProtocol: cell-based or functional assay
Starred links: 1 amine or outer side, 2 acyl side, 3 side chain; linkers in the order of their positions; H or OH if unused. Non-standard residues stand in square brackets, D forms with d. Groups on a side chain read outwards from the residue. No end group written: not given here. *: point of attachment. C20 diacid = O=C(O)CCCCCCCCCCCCCCCCCCC(=O)*; γGlu = O=C(O)[C@H](CCC(=O)[*:2])N[*:1]; αMeL = CC(C)C[C@](C)(N)C(=O)O; AEEA = NCCOCCOCC(=O)O; Aib = CC(C)(N)C(=O)O
Labelling: Relative cAMP EC50 reported below 6 nM becomes MET; at or above becomes NOT MET.

Here are 6 binders together with their reported answers.
binder="Y[Aib]QGTFTSDYSI[αMeL]LDKK([AEEA-γGlu-C20 diacid])AQRAFIEYLLEGGPSSGEPPPSG-NH2 [Example 313]" assignedclass=MET
binder="YXQGTXTSDXXIXLDXKAQXEFIEXLIEGGPSSGAPPPEGE (non-natural residues, AEEA-γGlu-diacid acylated Lys, C-terminal amide; synthetic construct; SITE 2: note = 2-Aminoisobutyric Acid; SITE 6: note = alpha-methyl-2-fluoro-L-phenylalanine; SITE 10: note = 3-(4-Pyridyl)-L-alanine; SITE 11: note = alpha-methyl-L-serine; SITE 13: note = alpha-methyl-leucine; SITE 16: note = L-ornithine; SITE 17: note = Lysine is chemically mo) [Example 1148]" assignedclass=MET
binder="YXQGTFTSDFSXXLDKKAQXAFIEWLLEGGPSSGAPPPTGS (synthetic construct; SITE 2: note = 2-Aminoisobutyric Acid; SITE 12: note = L-ornithine; SITE 13: note = alpha-methyl-leucine; SITE 17: note = Lysine is chemically modified through conjugation of the epsilon-amino group of the Lysine side chain with (2-[2-(2-Amino-ethoxy)-ethoxy]-acetyl)-(gamma-Glu)) [Example 250]" assignedclass=MET
binder="YXQGTFTSDXSQXLDXKAQXQFIEYLLAGGPSSGAPPPSGSEE (synthetic construct; SITE 2: note = 2-Aminoisobutyric Acid; SITE 10: note = 3-(4-Pyridyl)-L-alanine; SITE 13: note = alpha-methyl-leucine; SITE 16: note = L-ornithine; SITE 17: note = Lysine is chemically modified through conjugation of the epsilon-amino group of the Lysine side chain with (gamma-Gl)) [Example 1006]" assignedclass=MET
binder="YXQGTFTSDFSXXLDKKAQXAFIEWLLEGGHSSGAPPPSGH (synthetic construct; SITE 2: note = 2-Aminoisobutyric Acid; SITE 12: note = L-ornithine; SITE 13: note = alpha-methyl-leucine; SITE 17: note = Lysine is chemically modified through conjugation of the epsilon-amino group of the Lysine side chain with (2-[2-(2-Amino-ethoxy)-ethoxy]-acetyl)-(gamma-Glu)) [Example 269]" assignedclass="NOT MET"
binder="Y[Aib]QGTFTSDYSI[αMeL]LDKQAAKQFIEYLIA[Aib]GPSSGEPPPSEG-NH2 (not fully specified (residue 20)) [Example 349]" assignedclass=MET

Challenge: I wonder whether HXQGTXTSDYXIXLDXKAQXAFIEYLLEGGPSSGEPPPE (synthetic construct; SITE 2: note = 2-Aminoisobutyric Acid; SITE 6: note = alpha-methyl-2-fluoro-L-phenylalanine; SITE 11: note = alpha-methyl-L-serine; SITE 13: note = alpha-methyl-leucine; SITE 16: note = L-ornithine; SITE 17: note = Lysine is chemically modified through conjugation of the epsilon) [Example 381] has Relative cAMP EC50 below 6 nM. Can you tell?
Response given: MET

Sourced from patent US20240270821A1
